Data credit: PubChem BioAssay (NCI)

Below is a list of entries, each paired with its recorded GI50 value.
system: NCI-H23 lung; test: NCI tumour cell line growth inhibition, 48 h
property name: GI50

compound=C=C(C)[C@@H]1CC[C@]2(C)[C@H](C(=O)C=C3[C@@H]4C[C@](C)(C(=O)N5CCN(C)CC5)CC[C@]4(C)CC[C@]32C)[C@@]1(C)CCC#N result="6.97 µM"
compound="COc1cccc(C2C(C#N)=C(N)Oc3cc(N)ccc32)c1 (stereo unspecified)" result="0.571 µM"
compound=CCOc1ccc([C@@H]2[C@@H](Oc3ccccc3)C(=O)N2c2cc(OC)c(OC)c(OC)c2)cc1 result="0.467 µM"
compound=COc1cc2c(cc1OCCOS(C)(=O)=O)N=C[C@@H]1CCCN1C2=O result="12.2 µM"
compound=CCCCCCCC/C=C/CCCCCCCC1=NCC[N+]1(CCO)CCO result="3.05 µM"
compound=COc1ccccc1-n1c(-c2cc(O)ccc2C)cn2c3c(=O)[nH]c(=O)n(C)c3nc12 result="60.9 µM"
